TARGET: γ2δ3 TCR-hFc mutant S6 (R75Q, R95Q in the Vδ3 chain) (human) (UniProt B7Z8K6)
ASSAY OVERVIEW: Luminex beads; TCR-hFc captured by goat anti-human Fc; antibody titrated
OBSERVATION TYPE: EC50 (nM)

binder="δ3-42 (antibody, V domains shown) VH: DVQLQESGPDLVKPSQSLSLTCTVTGYSITSGYNWHWIRQFPGNKLEWMGYIHYSGNTDYNPSLRSRISITRDTSKNQFFLHLNSVPTEDTATYYCARSGITTDWYFDVWGAGTTVTVSS VL: QIVLSQSPAILSASPGEKVTMTCRASSSVNYMHWYQQKPGSSPKPWIYATSNLASGVPARFSGSGSGTSYSLTISKVEAEDAATYYCQQWSSHQPTFGAGTKLELK" observation_type=EC50 reported_result=0.13
binder="δ3-08 (antibody, V domains shown) VH: EEKLEESGGGLVQPGGSMKLSCVASGFIFSIYWMNWVRQSPEKGLEWVGQIRLKSDNYATHYAESVKGRFTISRDDSKSSVYLQMNNLRAEDTGIYYCMYYGSSYERFAYWGQGTLVTVSA VL: DIQMIQSPASLSVSVGETVTITCRASENIYSNLAWYQQKQGKSPQLLVYVATKLADGVPSRFSGSGSGTQYSLKINSLQSEDFGSYYCQHFWGTPPWTFGGGTKLEIK" observation_type=EC50 reported_result=0.06
binder="δ3-23 (antibody, V domains shown) VH: EVQLQQSGAELVKPGASVKLSCTASGFNIRDTYMHWVKQRPEQGLEWIGRIDPANGNTKYDPKFRGKATITADTSSNTAYLQLSSLTSEGTAVYYCSEGIYFDYWGQGTTLTVSS VL: DILLTQSPAILSVSPGERVSFSCRASQNIGTIIHWYQQRANGSPRLLIKYASESISGIPSRFSGSGSGTDFTLSINSVESEDIADYYCQQSNSWPYTFGGGTKLEIKR" observation_type=EC50 reported_result=0.04
binder="δ3-58 (antibody, V domains shown) VH: EVKLVESGGGLVQPGGSLKLSCAASGFTFSSYAMSWVRQTPEKRLEWVAYIRDGGGGTYYPDTVEGRFTISRDNAKNTLYLQMSSLKSEDTAMYYCARHPPMNDWFLYWGQGTLVTVSA VL: DIQMTQSPASLSVSVGETVTITCRASENIYSHLAWYQQKQGKSPQLLVYAATNLADGVPSRFSGSGSGTQYSLKINSLQSEDFGSYYCQHFWGTPYTFGGGTKLEIKR" observation_type=EC50 reported_result=0.02
